Values compiled from ChEMBL document CHEMBL3352308.

biological target: Protease (Human immunodeficiency virus 1) (UniProt Q9YQ12); assay: Inhibition of HIV-1 protease using DABCYL-Abu-Ser-Gln-Asn-Tyr-Pro-Ile-Val-Gln-EDANS as substrate preincubated at 10 uM for 15 mins before substrate addition measured over 15 mins by fluorometric assay
Sequence (Q9YQ12 as listed by the source): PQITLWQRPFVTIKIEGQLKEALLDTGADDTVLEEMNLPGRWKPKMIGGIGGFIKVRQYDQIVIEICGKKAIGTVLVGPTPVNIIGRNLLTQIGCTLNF
Quick rule: inhibition of at least 50% means label 1, below that means label 0.

[in] Given the entry CCCC[C@@H](C(=O)OC)N1C[C@H]2O[C@H](C(=O)N3CCCCC3)[C@H](O2)C1=O , answer whether its inhibition meets or surpasses 50%.
[out] label 0

[in] Given the entry CC(C)C[C@@H](CO)NC(=O)[C@@H]1O[C@H]2CN(Cc3ccccc3)C(=O)[C@@H]1O2 , answer whether its inhibition meets or surpasses 50%.
[out] label 1

[in] Given the entry CCCC[C@@H](C(=O)OC)N1C[C@@H]2O[C@@H](C(=O)N3CCCCC3)[C@@H](O2)C1=O , answer whether its inhibition meets or surpasses 50%.
[out] label 0

[in] Given the entry CC(C)C[C@H](C(=O)O)N1C[C@@H]2O[C@@H](C(=O)N3CCCCC3)[C@@H](O2)C1=O , answer whether its inhibition meets or surpasses 50%.
[out] label 0

[in] Given the entry O=C([C@H]1O[C@@H]2CN(Cc3ccccc3)C(=O)[C@H]1O2)N1CCN(CCO)CC1 , answer whether its inhibition meets or surpasses 50%.
[out] label 0

[in] Given the entry COC(=O)[C@H](CC(C)C)N1C[C@@H]2O[C@@H](C(=O)N3CCN(Cc4ccccc4)CC3)[C@@H](O2)C1=O , answer whether its inhibition meets or surpasses 50%.
[out] label 0

[in] Given the entry COC(=O)[C@H](CC(C)C)N1C[C@@H]2O[C@@H](C(=O)N3CCN(CCc4ccccc4)CC3)[C@@H](O2)C1=O , answer whether its inhibition meets or surpasses 50%.
[out] label 1

[in] Given the entry CCCCNC(=O)[C@@H]1O[C@@H]2O[C@H]1C(=O)N(Cc1ccccc1)[C@H]2Cc1ccccc1 , answer whether its inhibition meets or surpasses 50%.
[out] label 1

[in] Given the entry O=C(NC1CCCCC1)[C@@H]1O[C@@H]2O[C@H]1C(=O)N(Cc1ccccc1)[C@H]2Cc1ccccc1 , answer whether its inhibition meets or surpasses 50%.
[out] label 1

[in] Given the entry CC(C)CC(=O)N[C@H](C(=O)N[C@H](C(=O)N[C@@H](CC(C)C)[C@@H](O)CC(=O)N[C@@H](C)C(=O)N[C@@H](CC(C)C)[C@@H](O)CC(=O)O)C(C)C)C(C)C , answer whether its inhibition meets or surpasses 50%.
[out] label 1

[in] Given the entry O=C([C@@H]1O[C@@H]2O[C@H]1C(=O)N(Cc1ccccc1)[C@@H]2Cc1ccccc1)N1CCCCC1 , answer whether its inhibition meets or surpasses 50%.
[out] label 1

[in] Given the entry CC[C@H](C)[C@@H](C(=O)OC)N1C[C@@H]2O[C@@H](C(=O)N3CCCCC3)[C@@H](O2)C1=O , answer whether its inhibition meets or surpasses 50%.
[out] label 0

[in] Given the entry CNCCNC(=O)[C@@H]1O[C@@]2(c3ccccc3)CN(C(c3ccccc3)c3ccccc3)C(=O)[C@@H]1O2 , answer whether its inhibition meets or surpasses 50%.
[out] label 0

[in] Given the entry O=C(NC1CCCCC1)[C@@H]1O[C@H]2CN(Cc3ccccc3)C(=O)[C@@H]1O2 , answer whether its inhibition meets or surpasses 50%.
[out] label 0

[in] Given the entry CC(C)C[C@@H](C(=O)O)N1C[C@@H]2O[C@@H](C(=O)N3CCCCC3)[C@@H](O2)C1=O , answer whether its inhibition meets or surpasses 50%.
[out] label 1

[in] Given the entry CC(C)C[C@@H](CO)NC(=O)[C@@H]1O[C@@H]2O[C@H]1C(=O)N(Cc1ccccc1)[C@@H]2Cc1ccccc1 , answer whether its inhibition meets or surpasses 50%.
[out] label 1
